System: Septoria nodorum
Test: Test C: wheat glume blotch, preventive spray on wheat seedlings, disease rating
Assay type: in vivo
Settings: 40 ppm (*), 100 = 100% disease control, 0 = no control relative to controls
From the text: The test compounds were first dissolved in acetone in an amount equal to 3% of the final volume and then suspended at the desired concentration (in ppm) in acetone and purified water (50/50 mix) containing 250 ppm of the surfactant Trem® 014 (polyhydric alcohol esters). The resulting test suspensions were then used in Tests A-L. Spraying a 200 ppm test suspension to the point of run-off on the test plants was the equivalent of an application rate of 500 g/ha. […]
Marks after values point to notes of the source that are not given here.
assayEndpoint: Percentage Disease Control, Test C

stdin: Sample COC(=O)NCc1cc(-c2ccnc(C3CC3)n2)ccc1Cl [Cmpd 137] — what was its Percentage Disease Control, Test C?
stdout: 90* %

stdin: Sample COC(=O)NCc1cc(-c2cnn(-c3ccc(Cl)cc3)n2)ccc1Cl [Compound 147] — what was its Percentage Disease Control, Test C?
stdout: 99* %

stdin: Sample COC(=O)NCc1cc(-c2ccnc(-c3ccc(C)cc3)n2)ccc1Cl [Cmpd 132] — what was its Percentage Disease Control, Test C?
stdout: 98* %

stdin: Sample COC(=O)NCc1cc(-c2ccnc(OCc3ccccc3)n2)ccc1Cl [Cmpd 139] — what was its Percentage Disease Control, Test C?
stdout: 99* %

stdin: Sample COC(=O)NCc1cc(-c2ccnc(-c3ccccc3)n2)ccc1Cl [Cmpd 134] — what was its Percentage Disease Control, Test C?
stdout: 96* %

---

Tested on: Puccinia recondita f. sp. tritici
Experiment: Test B: wheat leaf rust, preventive spray on wheat seedlings, disease rating
Assay type: in vivo
Conditions: 40 ppm (*)
Marks after values point to notes of the source that are not given here.
Would you kindly list Percentage Disease Control, Test B for each of these compounds?

stdin: Sample COC(=O)NCc1cc(-c2ccn(Cc3ccccc3)n2)ccc1Cl — what was its Percentage Disease Control, Test B?
stdout: 100* %

stdin: Sample COC(=O)NCc1cc(-c2ccn(CCCc3ccccc3)n2)ccc1Cl — what was its Percentage Disease Control, Test B?
stdout: 100* %

stdin: Sample COC(=O)NCc1cc(-c2ccn(CCCC(c3ccc(F)cc3)c3ccc(F)cc3)n2)ccc1Cl — what was its Percentage Disease Control, Test B?
stdout: 99* %

stdin: Sample CCCn1nc(-c2ccc(Cl)c(CNC(=O)OC)c2)cc1C(F)(F)F — what was its Percentage Disease Control, Test B?
stdout: 98* %

stdin: Sample COC(=O)NCc1cc(-c2ccn(-c3nccc(C(F)(F)F)n3)n2)ccc1Cl — what was its Percentage Disease Control, Test B?
stdout: 100* %

stdin: Sample COC(=O)NCc1cc(-c2ccn(-c3ccc(-c4ccccc4)cc3)n2)ccc1Cl — what was its Percentage Disease Control, Test B?
stdout: 0* %

stdin: Sample COC(=O)NCc1cc(-c2ccn(Cc3ccccc3OC(F)(F)F)n2)ccc1Cl — what was its Percentage Disease Control, Test B?
stdout: 100* %

stdin: Sample COC(=O)NCc1cc(-c2ccn(CCc3ccccc3)n2)ccc1Cl — what was its Percentage Disease Control, Test B?
stdout: 100* %

stdin: Sample COC(=O)NCc1cc(-c2ccn(Cc3ccc(Cl)cc3)n2)ccc1Cl — what was its Percentage Disease Control, Test B?
stdout: 99* %

stdin: Sample COC(=O)NOc1cc(-c2cccc(Cl)c2)ccc1Cl — what was its Percentage Disease Control, Test B?
stdout: 99* %

---

Test system: Alternaria solani
Assay: Test H: tomato early blight, preventive spray on tomato seedlings, disease rating
Format: in vivo
Conditions: 40 ppm (*)
Marks after values point to notes of the source that are not given here.
assayEndpoint: Percentage Disease Control, Test H

stdin: Sample COC(=O)NCc1cc(-c2ccn(-c3nc(C)ns3)n2)ccc1Cl — what was its Percentage Disease Control, Test H?
stdout: 90* %

stdin: Sample COC(=O)NCc1cc(-c2ccn(Cc3ccc(-c4ccccc4C#N)cc3)n2)ccc1Cl — what was its Percentage Disease Control, Test H?
stdout: 16* %

stdin: Sample COC(=O)NCc1cc(-c2ccn(-c3cccc(C)c3)n2)ccc1Cl — what was its Percentage Disease Control, Test H?
stdout: 97* %

stdin: Sample COC(=O)NCc1cc(-c2ccn(Cc3ccc(OC(F)(F)F)cc3)n2)ccc1Cl — what was its Percentage Disease Control, Test H?
stdout: 96* %

stdin: Sample COC(=O)NCc1cc(-c2ccn(-c3nccc(C(F)(F)F)n3)n2)ccc1Cl — what was its Percentage Disease Control, Test H?
stdout: 9* %

---

Would you kindly list Percentage Disease Control, Test A for each of these compounds?
Test system: Erysiphe graminis f. sp. tritici
Assay: Test A: wheat powdery mildew, preventive spray on wheat seedlings, disease rating
Assay type: in vivo
Settings: 40 ppm (*)
Marks after values point to notes of the source that are not given here.

stdin: Sample COC(=O)NCc1cc(-c2ccn(-c3ccc(Br)cc3)n2)ccc1Cl [Cmpd 111] — what was its Percentage Disease Control, Test A?
stdout: 99* %

stdin: Sample COC(=O)NCc1cc(-c2ccn(Cc3ccccc3C)n2)ccc1Cl [Cmpd 70] — what was its Percentage Disease Control, Test A?
stdout: 99* %

stdin: Sample COC(=O)NCc1cc(-n2ccc(-c3ccc(Br)cc3)n2)ccc1Cl [Cmpd 124] — what was its Percentage Disease Control, Test A?
stdout: 100* %

stdin: Sample COC(=O)NCc1cc(-c2ccn(CCC(C)C)n2)ccc1Cl [Cmpd 22] — what was its Percentage Disease Control, Test A?
stdout: 99* %

stdin: Sample COC(=O)NCc1cc(-c2ccn(-c3cccc(OC)c3)n2)ccc1Cl [Cmpd 107] — what was its Percentage Disease Control, Test A?
stdout: 100* %

stdin: Sample COC(=O)NCc1cc(-n2ccc(-c3cccc(Br)c3)n2)ccc1Cl [Cmpd 121] — what was its Percentage Disease Control, Test A?
stdout: 98* %

stdin: Sample COC(=O)NCc1cc(-c2cc(C)n(CCC[Si](C)(C)C)n2)ccc1Cl [Cmpd 40] — what was its Percentage Disease Control, Test A?
stdout: 99* %

stdin: Sample COC(=O)NOc1cc(-c2cccc(OC(F)(F)F)c2)ccc1Cl [Cmpd 18] — what was its Percentage Disease Control, Test A?
stdout: 100* %

---

Tested on: Alternaria solani
Assay: Test H: tomato early blight, preventive spray on tomato seedlings, disease rating
Type: in vivo
Details: 40 ppm (*)
Marks after values point to notes of the source that are not given here.
assayEndpoint: Percentage Disease Control, Test H

stdin: Sample COC(=O)NCc1cc(-c2ccn(-c3ccccc3)n2)ccc1Cl — what was its Percentage Disease Control, Test H?
stdout: 90* %

stdin: Sample COC(=O)NCc1cc(-c2ccn(Cc3ccc(C)cc3)n2)ccc1Cl — what was its Percentage Disease Control, Test H?
stdout: 94* %

stdin: Sample COC(=O)NOc1cc(-c2cccc(Cl)c2)ccc1Cl — what was its Percentage Disease Control, Test H?
stdout: 63* %

stdin: Sample COC(=O)NCc1cc(-c2ccn(Cc3ccccc3)n2)ccc1Cl — what was its Percentage Disease Control, Test H?
stdout: 96* %

stdin: Sample COC(=O)NCc1cc(C(C)=NOC[Si](C)(C)c2ccc(F)cc2)ccc1Cl — what was its Percentage Disease Control, Test H?
stdout: 95* %

---

Would you kindly list Percentage Disease Control, Test A for each of these compounds?
System: Erysiphe graminis f. sp. tritici
Assay: Test A: wheat powdery mildew, preventive spray on wheat seedlings, disease rating
Assay type: in vivo
Conditions: 40 ppm (*)
Marks after values point to notes of the source that are not given here.

stdin: Enter reported Percentage Disease Control, Test A observed with Erysiphe graminis f. sp. tritici for COC(=O)NCc1cc(-c2ccn(Cc3ccc(OC(F)(F)F)cc3)n2)ccc1Cl [Cmpd 66]
stdout: 99* %

stdin: Enter reported Percentage Disease Control, Test A observed with Erysiphe graminis f. sp. tritici for COC(=O)NCc1cc(-c2ncn(-c3cccc(C(F)(F)F)c3)n2)ccc1Cl [Cmpd 89]
stdout: 100* %

stdin: Enter reported Percentage Disease Control, Test A observed with Erysiphe graminis f. sp. tritici for COC(=O)NCc1cc(-c2ccn(-c3cccc(C(F)(F)F)c3)n2)ccc1Cl [Cmpd 50]
stdout: 100* %

stdin: Enter reported Percentage Disease Control, Test A observed with Erysiphe graminis f. sp. tritici for COC(=O)NCc1cc(-c2ccn(CCC(=O)c3ccc(Cl)cc3)n2)ccc1Cl [Cmpd 56]
stdout: 89* %

stdin: Enter reported Percentage Disease Control, Test A observed with Erysiphe graminis f. sp. tritici for COC(=O)NCc1cc(-c2cc(C(F)(F)F)n(CCC[Si](C)(C)C)n2)ccc1Cl [Cmpd 45]
stdout: 99* %

stdin: Enter reported Percentage Disease Control, Test A observed with Erysiphe graminis f. sp. tritici for COC(=O)NCc1cc(-c2ccn(CCCc3ccccc3)n2)ccc1Cl [Cmpd 42]
stdout: 98* %

stdin: Enter reported Percentage Disease Control, Test A observed with Erysiphe graminis f. sp. tritici for COC(=O)NCc1cc(-c2ccn(-c3nc(C(C)(C)C)ns3)n2)ccc1Cl [Cmpd 96]
stdout: 100* %

stdin: Enter reported Percentage Disease Control, Test A observed with Erysiphe graminis f. sp. tritici for COC(=O)NCc1cc(-c2ccn(-c3ccc(-c4ccccc4)cc3)n2)ccc1Cl [Cmpd 82]
stdout: 60* %

stdin: Enter reported Percentage Disease Control, Test A observed with Erysiphe graminis f. sp. tritici for COC(=O)NCc1cc(-c2ccn(-c3ccccc3C(F)(F)F)n2)ccc1Cl [Cmpd 51]
stdout: 97* %

stdin: Enter reported Percentage Disease Control, Test A observed with Erysiphe graminis f. sp. tritici for COC(=O)NCc1cc(C(C)=NOC[Si](C)(C)C)ccc1Cl [Compound 6]
stdout: 99* %

stdin: Enter reported Percentage Disease Control, Test A observed with Erysiphe graminis f. sp. tritici for COC(=O)NCc1cc(-c2ccn(CCC[Si](C)(C)C)n2)ccc1Cl [Cmpd 23]
stdout: 99* %

stdin: Enter reported Percentage Disease Control, Test A observed with Erysiphe graminis f. sp. tritici for COC(=O)NCc1cc(-c2ccn(CCc3ccccc3)n2)ccc1Cl [Cmpd 58]
stdout: 98* %

stdin: Enter reported Percentage Disease Control, Test A observed with Erysiphe graminis f. sp. tritici for COC(=O)NCc1cc(-c2ccn(Cc3cccc(Cl)c3)n2)ccc1Cl [Cmpd 60]
stdout: 98* %

stdin: Enter reported Percentage Disease Control, Test A observed with Erysiphe graminis f. sp. tritici for COC(=O)NCc1cc(-c2ccn(-c3cccc(Cl)c3)n2)ccc1Cl [Cmpd 80]
stdout: 98* %

stdin: Enter reported Percentage Disease Control, Test A observed with Erysiphe graminis f. sp. tritici for COC(=O)NCc1cc(C(C)=NOC[Si](C)(C)c2ccccc2)ccc1Cl [Compound 15]
stdout: 100* %

stdin: Enter reported Percentage Disease Control, Test A observed with Erysiphe graminis f. sp. tritici for COC(=O)NCc1cc(-c2ccn(-c3cc(C(F)(F)F)ccn3)n2)ccc1Cl [Cmpd 86]
stdout: 99* %

stdin: Enter reported Percentage Disease Control, Test A observed with Erysiphe graminis f. sp. tritici for COC(=O)NCc1cc(-c2ccn(-c3cccc(C)c3)n2)ccc1Cl [Cmpd 81]
stdout: 85* %

stdin: Enter reported Percentage Disease Control, Test A observed with Erysiphe graminis f. sp. tritici for COC(=O)NCc1cc(-c2ccn(-c3ccc(Cl)cc3)n2)ccc1Cl [Cmpd 74]
stdout: 100* %

stdin: Enter reported Percentage Disease Control, Test A observed with Erysiphe graminis f. sp. tritici for COC(=O)NCc1cc(-c2ccn(-c3ccc(Cl)c(C(F)(F)F)c3)n2)ccc1Cl [Cmpd 88]
stdout: 95* %
